- System: rodent lifetime carcinogenesis bioassay, tumor incidence TD50
- MEASUREMENT PROTOCOL: carcinogenic potency in animals, long-term in vivo studies, CPDB compilation (AID 1745844)
- CONDITION PARAMETERS: mouse; strain B6AKF1; females; oral dosing; site: stomach; lesion: papilloma; dosed 81 weeks; study length 81 weeks
ENDPOINT LABEL: TD50 (mg/kg/day)
// return numeric value only (unit: mg/kg/day, not printed)

Query string: Recorded TD50 for CCCc1ccc2c(c1)OCO2 , please?
Result string: 84.7

###

- Test system: rodent lifetime carcinogenesis bioassay, tumor incidence TD50
- MEASUREMENT PROTOCOL: carcinogenic potency in animals, long-term in vivo studies, CPDB compilation (AID 1745844)
- CONDITION PARAMETERS: mouse; strain ICR; males; in feed; site: kidney; lesion: several types; types named in the paper; dosed 78 weeks; study length 78 weeks
ENDPOINT LABEL: TD50

Query string: Field: TD50 (rodent lifetime carcinogenesis bioassay, tumor incidence TD50). Entry: [CH3][Hg][Cl]
Result string: 0.896 mg/kg/day

###

- System: rodent lifetime carcinogenesis bioassay, tumor incidence TD50
- MEASUREMENT PROTOCOL: carcinogenic potency in animals, long-term in vivo studies, CPDB compilation (AID 1745844)
- CONDITION PARAMETERS: rat; strain F344/DuCrj; males; in feed; site: subcutaneous tissue; lesion: lipoma; dosed 104 weeks; study length 113 weeks
Activity calls are given as the source filed them. No rule for the calls is given here.
ENDPOINT LABEL: TD50

Query string: Field: TD50 (rodent lifetime carcinogenesis bioassay, tumor incidence TD50). Entry: N#CN=C(N)N
Result string: 15600 mg/kg/day (inactive)

###

- Test system: rodent lifetime carcinogenesis bioassay, tumor incidence TD50
- MEASUREMENT PROTOCOL: carcinogenic potency in animals, long-term in vivo studies, CPDB compilation (AID 1745844)
- CONDITION PARAMETERS: rat; strain Fischer 344; males; in feed; site: testis; lesion: interstitial-cell tumor; dosed 122 weeks; study length 122 weeks
Activity calls are given as the source filed them. The rule behind the calls is not given here.
ENDPOINT LABEL: TD50

Query string: Recorded TD50 for OC[C@H]1O[C@@H]2O[C@H]3[C@H](O)[C@@H](O)[C@@H](O[C@H]4[C@H](O)[C@@H](O)[C@@H](O[C@H]5[C@H](O)[C@@H](O)[C@@H](O[C@H]6[C@H](O)[C@@H](O)[C@@H](O[C@H]7[C@H](O)[C@@H](O)[C@@H](O[C@H]8[C@H](O)[C@@H](O)[C@@H](O[C@H]1[C@H](O)[C@H]2O)O[C@@H]8CO)O[C@@H]7CO)O[C@@H]6CO)O[C@@H]5CO)O[C@@H]4CO)O[C@@H]3CO , please?
Result string: 157 mg/kg/day (inactive)

###

- Test system: rodent lifetime carcinogenesis bioassay, tumor incidence TD50
- MEASUREMENT PROTOCOL: carcinogenic potency in animals, long-term in vivo studies, CPDB compilation (AID 1745844)
- CONDITION PARAMETERS: mouse; strain B6C3F1; females; in feed; site: pituitary gland; lesion: pars distalis adenoma; dosed 104 weeks; study length 104 weeks
ENDPOINT LABEL: TD50

Query string: Recorded TD50 for Nc1c(Br)cc(Br)c2c1C(=O)c1ccccc1C2=O , please?
Result string: 3750 mg/kg/day

###

- Tested on: rodent lifetime carcinogenesis bioassay, tumor incidence TD50
- MEASUREMENT PROTOCOL: carcinogenic potency in animals, long-term in vivo studies, CPDB compilation (AID 1745844)
- CONDITION PARAMETERS: mouse; strain Swiss; females; in drinking water; site: liver; lesion: several types; types named in the paper; dosed 113 weeks; study length 113 weeks
ENDPOINT LABEL: TD50 (mg/kg/day)
// return numeric value only (unit: mg/kg/day, not printed)

Query string: Recorded TD50 for CNN , please?
Result string: 47.2

###

- Test system: rodent lifetime carcinogenesis bioassay, tumor incidence TD50
- MEASUREMENT PROTOCOL: carcinogenic potency in animals, long-term in vivo studies, CPDB compilation (AID 1745844)
- CONDITION PARAMETERS: rat; strain Sprague-Dawley; males; in feed; site: nasal cavity; lesion: adenocarcinoma; dosed 78 weeks; study length 104 weeks
ENDPOINT LABEL: TD50

Query string: Recorded TD50 for CCOc1ccc(NC(C)=O)cc1 , please?
Result string: 2380 mg/kg/day

###

- Tested on: rodent lifetime carcinogenesis bioassay, tumor incidence TD50
- MEASUREMENT PROTOCOL: carcinogenic potency in animals, long-term in vivo studies, CPDB compilation (AID 1745844)
- CONDITION PARAMETERS: rat; strain Wistar; females; in feed; site: forestomach; lesion: several types; types named in the paper; dosed 96 weeks; study length 101 weeks
ENDPOINT LABEL: TD50

Query string: Recorded TD50 for O=P(O)(OCC(Br)CBr)OCC(Br)CBr (stereo unspecified) , please?
Result string: 40 mg/kg/day

###

- System: rodent lifetime carcinogenesis bioassay, tumor incidence TD50
- MEASUREMENT PROTOCOL: carcinogenic potency in animals, long-term in vivo studies, CPDB compilation (AID 1745844)
- CONDITION PARAMETERS: mouse; strain Charles River CD1; males; in feed; site: liver; lesion: hepatocellular carcinoma; dosed 52 weeks; study length 52 weeks
ENDPOINT LABEL: TD50

Query string: Recorded TD50 for CCCCOCCOCCOCc1cc2c(cc1CCC)OCO2 , please?
Result string: 410 mg/kg/day

###

- Tested on: rodent lifetime carcinogenesis bioassay, tumor incidence TD50
- MEASUREMENT PROTOCOL: carcinogenic potency in animals, long-term in vivo studies, CPDB compilation (AID 1745844)
- CONDITION PARAMETERS: hamster; strain Syrian Golden; females; in drinking water; site: lung; lesion: angiosarcoma; dosed 86 weeks; study length 86 weeks
Calls of active or inactive are those of the source. The rule behind the calls is not given here.
ENDPOINT LABEL: TD50

Query string: Recorded TD50 for CNN , please?
Result string: 297 mg/kg/day (inactive)

###

- Tested on: rodent lifetime carcinogenesis bioassay, tumor incidence TD50
- MEASUREMENT PROTOCOL: carcinogenic potency in animals, long-term in vivo studies, CPDB compilation (AID 1745844)
- CONDITION PARAMETERS: mouse; strain B6C3F1; females; by gavage; site: myocardium; lesion: sarcoma, NOS; dosed 70 weeks; study length 83 weeks
ENDPOINT LABEL: TD50

Query string: Recorded TD50 for CC(C)CCC[C@@H](C)[C@H]1CC[C@H]2[C@@H]3CC=C4C[C@@H](OC(=O)Cc5ccc(N(CCCl)CCCl)cc5)CC[C@]4(C)[C@H]3CC[C@]12C , please?
Result string: 0.951 mg/kg/day

###

- System: rodent lifetime carcinogenesis bioassay, tumor incidence TD50
- MEASUREMENT PROTOCOL: carcinogenic potency in animals, long-term in vivo studies, CPDB compilation (AID 1745844)
- CONDITION PARAMETERS: mouse; strain B6C3F1; males; inhaled; site: any site (literature study); lesion: several types; types named in the paper; dosed 82 weeks; study length 104 weeks
ENDPOINT LABEL: TD50 (mg/kg/day)
// return numeric value only (unit: mg/kg/day, not printed)

Query string: Recorded TD50 for C=CC=C , please?
Result string: 10.5

###

- System: rodent lifetime carcinogenesis bioassay, tumor incidence TD50
- MEASUREMENT PROTOCOL: carcinogenic potency in animals, long-term in vivo studies, CPDB compilation (AID 1745844)
- CONDITION PARAMETERS: mouse; strain Swiss; females; inhaled; site: any site (literature study); lesion: several types; types named in the paper; dosed 78 weeks; study length 145 weeks
ENDPOINT LABEL: TD50
Just the number plus its unit, please.

Query string: Recorded TD50 for ClC=C(Cl)Cl , please?
Result string: 9190 mg/kg/day

###

- Tested on: rodent lifetime carcinogenesis bioassay, tumor incidence TD50
- MEASUREMENT PROTOCOL: carcinogenic potency in animals, long-term in vivo studies, CPDB compilation (AID 1745844)
- CONDITION PARAMETERS: rat; strain Wistar; females; in feed; site: liver; lesion: hepatoma; dosed 104 weeks; study length 104 weeks
ENDPOINT LABEL: TD50 (mg/kg/day)
// return numeric value only (unit: mg/kg/day, not printed)

Query string: Recorded TD50 for Nc1cc(Cl)c(-c2cc(Cl)c(N)cc2Cl)cc1Cl , please?
Result string: 735

###

- System: rodent lifetime carcinogenesis bioassay, tumor incidence TD50
- MEASUREMENT PROTOCOL: carcinogenic potency in animals, long-term in vivo studies, CPDB compilation (AID 1745844)
- CONDITION PARAMETERS: mouse; strain B6C3F1; males; inhaled; site: lung; lesion: alveolar/bronchiolar adenoma + alveolar/bronchiolar carcinoma; dosed 102 weeks; study length 105 weeks
ENDPOINT LABEL: TD50 (mg/kg/day)
// return numeric value only (unit: mg/kg/day, not printed)

Query string: Recorded TD50 for C=CCOCC1CO1 (stereo unspecified) , please?
Result string: 727
